system: AKR/Lw mice, AKR lymphoma ip, median survival T/C; assay: NCI In Vivo Anticancer Drug Screen. Data for tumor model Lymphoma AKR (Transplanted) (intraperitoneal) in AKR/Lw mice; conditions: endpoint: median survival time; dose: 100.0 mg/kg/injection; schedule: Q04DX003 (ip); vehicle: saline; higher = longer survival
Inconclusive results and toxic doses are left out.
Recorded T/C by entry
measured.endpoint: T/C

In [3]: df
Out[3]:
                                   molecule  measured_endpoint     readout_value
0  COC(=O)C1CC2C(Cl)=C(Cl)C1(Cl)C2(Cl)Cl (centres undefined)                T/C   95 % of control
1                     CC(=O)NNC(=O)c1ccccn1                T/C  116 % of control
2                       O=C(O)C12CCC(CC1)C2                T/C  100 % of control
3  NC(CSC(c1ccccc1)(c1ccccc1)c1ccccc1)C(=O)O (centres undefined)                T/C   91 % of control
